// provenance: patent US20250188037A1

Molecular target: SSTR4 (Homo sapiens (Human))
Assay: Inhibition of forskolin stimulated cAMP in cells overexpressing SSTR4
Assay type: cell-based
Conditions: inhibition of forskolin stimulated cAMP in CHO-K1 cells overexpressing SSTR4; read-out: SSTR4 Activity pEC50 (converted)
assay readout: EC50 (nM)

Below: 2 compounds and their reported EC50.
Provide the reported EC50 (system: SSTR4 (Homo sapiens (Human))) for C[C@H]1CNCC[C@@H]1NC(=O)C1(Cc2ccc(Cl)cc2)CC1
2

Provide the reported EC50 (system: SSTR4 (Homo sapiens (Human))) for C[C@H]1CNCC[C@@H]1NC(=O)C(F)(F)Oc1ccccc1C#N
16.6

[I] C[C@H]1CN(C)CC[C@@H]1NC(=O)C1(Cc2ccc(F)cc2)CC1
[II] CN1CC[C@H](NC(=O)C2(Cc3ccc(Cl)cc3)CC2)[C@@H](F)C1
Between the two listed entries I and II , which has its EC50 at the higher number? Field: selected label. Fill in the label of the entry you choose.
II
(II: 102 nM, I: 26.3 nM)

[A] C[C@H]1C[C@@H](NC(=O)C(F)(F)Oc2ccccc2)CCN1 [Example 48]
[B] C[C@H]1CNCC[C@@H]1NC(=O)C1(Cc2ccc(F)cc2)CC1
[C] Cc1ccccc1CC1(C(=O)N[C@H]2CCN(C)C[C@@H]2C)CC1
[D] O=C(N[C@H]1CCNC[C@@H]1F)C1(Cc2ccccc2F)CC1
[E] Cc1ccc(CC2(C(=O)N[C@@H]3CCN(C)C[C@H]3C)CC2)cc1 (relative stereo)
Put the items in order so that reported EC50 rises from first to last. # list labels per requested ordering
B, C, D, A, E
(B: 2.75 nM, C: 14.1 nM, D: 63.1 nM, A: 91.2 nM, E: 141 nM)

[1] C[C@@H]1CN(C)CC[C@H]1NC(=O)C1(Cc2ccccc2Cl)CC1 (relative stereo)
[2] Cc1cccc(CC2(C(=O)N[C@@H]3CN(C)C[C@H]3C(C)C)CC2)c1 (racemic)
[3] O=C(NC1CCN2CCCC12)C1(Oc2ccccc2Cl)CC1 (stereo not drawn)
Ranking field: EC50; order: falling. # list labels per requested ordering
3, 1, 2

---

pIC50: −log10 of the molar value.
The compounds below have reported pIC50 for SSTR1 (Homo sapiens (Human), UniProt P30872).

# return recorded pIC50 for entry Cc1cccc(CC2(C(=O)NC3CN(C)CC3C)CC2)c1 (stereo not drawn)
5.08

Others:
# return recorded pIC50 for entry O=C(N[C@H]1CCNC[C@@H]1F)C1(Cc2ccccc2F)CC1
< 4.30

# return recorded pIC50 for entry C[C@@H]1C[C@H](NC(=O)C(F)(F)Oc2ccccc2)CCN1
< 4.30

# return recorded pIC50 for entry COc1cccc(CC2(C(=O)N[C@H]3CCNC[C@@H]3F)CC2)c1
< 4.30

# return recorded pIC50 for entry C[C@H]1CNCC[C@@H]1NC(=O)C1(Cc2ccc(Cl)cc2)CC1
5.33

# return recorded pIC50 for entry C[C@H]1CNCC[C@@H]1NC(=O)C(F)(F)Oc1cccc(F)c1
< 4.30

---

Biological target: SSTR4 (Homo sapiens (Human))
Experiment: SSTR4 I-125 somatostatin competition binding assay
Conditions: membranes from CHO-K1 cells overexpressing SSTR4
assay readout: SSTR4 Binding pIC50

# return recorded SSTR4 Binding pIC50 for entry O=C(N[C@H]1CCNC[C@@H]1F)C1(Cc2ccc(Cl)cc2)CC1 [Example 23]
7.13

# return recorded SSTR4 Binding pIC50 for entry Cc1ccc(OC(F)(F)C(=O)NC2CCNCC2)cc1 [Example 34]
6.17

# return recorded SSTR4 Binding pIC50 for entry Cc1ccccc1OC(F)(F)C(=O)N[C@H]1CCNC[C@@H]1C [Example 56]
7.14

# return recorded SSTR4 Binding pIC50 for entry O=C(N[C@H]1CCNC[C@@H]1F)C1(Cc2ccccc2F)CC1 [Example 43]
6.87

# return recorded SSTR4 Binding pIC50 for entry C[C@H]1CNCC[C@@H]1NC(=O)C(F)(F)Oc1ccccc1F [Example 54]
6.55

# return recorded SSTR4 Binding pIC50 for entry C[C@H]1CN(C)CC[C@@H]1NC(=O)C1(Cc2cccc(Cl)c2)CC1 [Example 36]
6.56

# return recorded SSTR4 Binding pIC50 for entry C[C@H]1CNCC[C@@H]1NC(=O)C(F)(F)Cc1ccccc1 [Example 26]
7.15

# return recorded SSTR4 Binding pIC50 for entry C[C@H]1CNCC[C@@H]1NC(=O)C(F)(F)Oc1ccccc1Cl [Example 64]
7.25

# return recorded SSTR4 Binding pIC50 for entry C[C@H]1CNCC[C@@H]1NC(=O)C(F)(F)Oc1ccc(F)cc1 [Example 58]
6.77

# return recorded SSTR4 Binding pIC50 for entry O=C(NC1CCNCC1)C(F)(F)Oc1ccccc1Cl [Example 70]
6.48

# return recorded SSTR4 Binding pIC50 for entry C[C@H]1CNCC[C@@H]1NC(=O)C1(Cc2ccc(Cl)cc2)CC1 [Example 18]
7.58

# return recorded SSTR4 Binding pIC50 for entry O=C(NC1CCNCC1)C(F)(F)Oc1ccccc1 [Example 14]
6.39

# return recorded SSTR4 Binding pIC50 for entry Cc1ccccc1CC1(C(=O)N[C@H]2CCNC[C@@H]2F)CC1 [Example 24]
7.23

# return recorded SSTR4 Binding pIC50 for entry C[C@H]1C[C@H](NC(=O)C(F)(F)Oc2ccccc2)CCN1 [Example 53]
5.43

# return recorded SSTR4 Binding pIC50 for entry C[C@H]1CNCC[C@@H]1NC(=O)C(F)(F)Oc1cccc(F)c1 [Example 55]
7.13

# return recorded SSTR4 Binding pIC50 for entry C[C@H]1C[C@@H](NC(=O)C(F)(F)Oc2ccccc2)CCN1 [Example 48]
5.43

# return recorded SSTR4 Binding pIC50 for entry N#Cc1ccccc1OC(F)(F)C(=O)NC1CCNCC1 [Example 32]
5.49

# return recorded SSTR4 Binding pIC50 for entry C[C@@H]1C[C@H](NC(=O)C(F)(F)Oc2ccccc2)CCN1 [Example 51]
5.53

# return recorded SSTR4 Binding pIC50 for entry Cc1cccc(CC2(C(=O)NC3CN(C)CC3C)CC2)c1 (centres unmarked) [Example 6]
6.55

# return recorded SSTR4 Binding pIC50 for entry C[C@H]1CNCC[C@@H]1NC(=O)C(F)(F)Oc1ccccc1C#N [Example 33]
6.79

---

Target: SSTR4 (Homo sapiens (Human), UniProt P31391)
Sequence (P31391 whole entry): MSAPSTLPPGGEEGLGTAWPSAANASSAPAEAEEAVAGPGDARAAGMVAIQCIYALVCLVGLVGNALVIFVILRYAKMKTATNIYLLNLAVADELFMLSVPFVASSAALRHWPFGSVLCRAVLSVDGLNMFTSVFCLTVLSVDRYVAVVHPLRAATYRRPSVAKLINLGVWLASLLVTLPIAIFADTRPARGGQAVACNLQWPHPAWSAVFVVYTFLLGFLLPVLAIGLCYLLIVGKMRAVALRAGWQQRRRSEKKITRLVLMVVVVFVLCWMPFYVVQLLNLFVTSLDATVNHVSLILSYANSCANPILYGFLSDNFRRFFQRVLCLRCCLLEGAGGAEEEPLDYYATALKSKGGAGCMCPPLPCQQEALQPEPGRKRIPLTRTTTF
Assay: Inhibition of forskolin stimulated cAMP in cells overexpressing SSTR4
Format: cell-based
Conditions: inhibition of forskolin stimulated cAMP in CHO-K1 cells overexpressing SSTR4; read-out: SSTR4 Activity pEC50 (converted)
assay readout: EC50 (nM)

Below: 4 molecules and their reported EC50.
# return recorded EC50 for entry O=C(NC1CCNCC1)C(F)(F)Oc1ccccc1 [Example 14]
67.6

# return recorded EC50 for entry CC(Oc1cccc(Cl)c1Cl)C(=O)N[C@H]1CCNC[C@@H]1F (some centres unmarked) [Example 61]
123

# return recorded EC50 for entry C[C@H]1C[C@H](NC(=O)C(F)(F)Oc2ccccc2)CCN1 [Example 53]
55

# return recorded EC50 for entry O=C(N[C@H]1CCNC[C@@H]1F)C1(Cc2cccc(F)c2)CC1 [Example 44]
20.4

[I] O=C(NC1CCNCC1)C(F)(F)Oc1ccccc1Cl [Example 70]
[II] C[C@H]1CNCC[C@@H]1NC(=O)C(F)(F)Oc1cccc(F)c1 [Example 55]
[III] Cc1ccc(OC(F)(F)C(=O)NC2CCNCC2)cc1 [Example 34]
Put the items in order so that reported EC50 rises from first to last. # list labels per requested ordering
II, I, III
(II: 5.25 nM, I: 18.2 nM, III: 47.9 nM)

[I] Cc1ccccc1CC1(C(=O)N[C@H]2CCNC[C@@H]2F)CC1 [Example 24]
[II] Cc1ccccc1OC(F)(F)C(=O)N[C@H]1CCNC[C@@H]1C [Example 56]
[III] O=C(N[C@H]1CCNC[C@@H]1F)C1(Cc2cccc(Cl)c2)CC1 [Example 27]
Ranking field: EC50; order: falling. # list labels per requested ordering
I, III, II

---

Biological target: SSTR4 (Homo sapiens (Human), UniProt P31391)
Experiment: SSTR4 I-125 somatostatin competition binding assay
Details: membranes from CHO-K1 cells overexpressing SSTR4, read-out: SSTR4 Binding pIC50 (converted)
assay readout: IC50 (nM)

# return recorded IC50 for entry Cc1ccccc1CC1(C(=O)N[C@@H]2CCN(C)C[C@H]2C)CC1 (racemic) [Example 12]
891

[A] Cc1cccc(CC2(C(=O)N[C@@H]3CN(C)C[C@H]3C(C)C)CC2)c1 (racemic) [Example 3]
[B] C[C@H]1C[C@@H](NC(=O)C(F)(F)Oc2ccccc2)CCN1 (relative stereo) [Example 50]
Of the pair A and B , name the member with the lesser recorded IC50. Field: selected label. Fill in the label of the entry you choose.
A
(A: 91.2 nM, B: 1320 nM)
